# System: panel of distinct kinases excluding mutant variants, typically 359 or 386 kinases
# Assay Info: Kinase selectivity score S10 from competition binding panel
# Condition Set: compound at 10 μM; fraction of kinases with inhibition of 90% or greater
Measurement Label: S-Score: S(10) at 10 μM

{"columns": ["Compound", "Result"],
 "data": [
  ["O=S(=O)(c1ccc(F)cc1)c1cc2ccccc2c(Nc2cc(O)[nH]n2)n1", "A (A ≦ 0.3)"],
  ["[2H]C([2H])([2H])n1cnc(Nc2nc(S(=O)(=O)c3ccc(F)cc3)cc3ccccc23)c1", "B (0.3 < B ≦ 0.4)"],
  ["Cc1coc(Nc2nc([S+]([O-])c3ccc(F)cc3)cc3ccccc23)n1 (racemic)", "A (A ≦ 0.3)"],
  ["O=S(=O)(c1ccc(F)cc1)c1cc2ccccc2c(Nc2ncco2)n1", "A (A ≦ 0.3)"],
  ["O=S(=O)(c1ccc(F)cc1)c1cc2ccccc2c(Nc2cc[nH]n2)n1", "B (0.3 < B ≦ 0.4)"],
  ["[O-][S+](c1ccc(F)cc1)c1cc2ccccc2c(Nc2nccs2)n1 (stereo not drawn)", "A (A ≦ 0.3)"],
  ["O=S(=O)(c1ccc(F)cc1)c1cc2ccccc2c(Nc2ncns2)n1", "B (0.3 < B ≦ 0.4)"],
  ["Cc1cnc(Nc2nc([S+]([O-])c3ccc(F)cc3)cc3ccccc23)s1 (stereo not drawn)", "C (0.4 < C ≦ 0.5)"],
  ["Cn1cnc(Nc2nc(S(=O)(=O)c3ccc(F)cc3)cc3ccccc23)c1", "C (0.4 < C ≦ 0.5)"]
]}

---

# key: entry, value: Kd
# Assay Target: JAK3 (Homo sapiens, UniProt P52333)
# Sequence (P52333 1-1124): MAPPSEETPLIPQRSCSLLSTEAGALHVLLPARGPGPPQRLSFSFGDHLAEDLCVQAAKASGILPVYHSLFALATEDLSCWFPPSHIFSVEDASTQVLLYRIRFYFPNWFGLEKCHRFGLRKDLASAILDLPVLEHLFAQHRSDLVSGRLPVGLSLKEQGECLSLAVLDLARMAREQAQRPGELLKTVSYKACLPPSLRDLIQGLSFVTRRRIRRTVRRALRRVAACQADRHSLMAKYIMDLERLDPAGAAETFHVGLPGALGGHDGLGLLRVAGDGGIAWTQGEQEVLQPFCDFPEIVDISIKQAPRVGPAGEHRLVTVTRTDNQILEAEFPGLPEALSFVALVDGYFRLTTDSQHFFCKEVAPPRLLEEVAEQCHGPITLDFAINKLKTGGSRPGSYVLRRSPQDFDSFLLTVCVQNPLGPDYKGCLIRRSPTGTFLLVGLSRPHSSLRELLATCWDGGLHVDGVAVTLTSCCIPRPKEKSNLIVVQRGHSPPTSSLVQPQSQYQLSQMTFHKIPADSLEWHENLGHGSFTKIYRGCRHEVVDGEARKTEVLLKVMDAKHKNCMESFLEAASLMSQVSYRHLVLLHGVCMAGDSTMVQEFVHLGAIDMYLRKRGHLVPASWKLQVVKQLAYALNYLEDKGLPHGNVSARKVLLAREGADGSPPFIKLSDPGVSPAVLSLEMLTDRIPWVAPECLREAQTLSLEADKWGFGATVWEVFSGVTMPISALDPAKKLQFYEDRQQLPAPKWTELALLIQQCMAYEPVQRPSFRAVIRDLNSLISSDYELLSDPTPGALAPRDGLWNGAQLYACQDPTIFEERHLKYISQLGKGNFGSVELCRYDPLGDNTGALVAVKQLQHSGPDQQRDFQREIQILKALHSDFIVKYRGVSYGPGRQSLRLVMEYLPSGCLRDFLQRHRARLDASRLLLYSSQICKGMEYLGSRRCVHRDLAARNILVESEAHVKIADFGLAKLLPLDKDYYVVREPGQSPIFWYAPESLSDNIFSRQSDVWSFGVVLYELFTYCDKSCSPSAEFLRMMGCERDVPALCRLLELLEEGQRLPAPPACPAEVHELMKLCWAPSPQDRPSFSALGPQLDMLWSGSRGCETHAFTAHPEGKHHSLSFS
Measurement Label: Kd

{"columns": ["Compound", "Assay Target", "Result"],
 "data": [
  ["Cc1coc(Nc2nc([S+]([O-])c3ccc(F)cc3)cc3ccccc23)n1 (racemic) [Example 22]", "JAK3 (Homo sapiens, UniProt P52333)", "> 100 nM"],
  ["O=S(=O)(c1ccc(F)cc1)c1cc2ccccc2c(Nc2cc(O)[nH]n2)n1 [Example 19]", "JAK3 (Homo sapiens, UniProt P52333)", "> 100 nM"],
  ["[O-][S+](c1ccc(F)cc1)c1cc2ccccc2c(Nc2nccs2)n1 (centres unmarked) [Example 11]", "JAK3 (Homo sapiens, UniProt P52333)", "10 to 100 nM"],
  ["Cc1cnc(Nc2nc(S(=O)(=O)c3ccc(F)cc3)cc3ccccc23)s1 [Example 16]", "JAK3 (Homo sapiens, UniProt P52333)", "≤ 10 nM"],
  ["CCn1cnc(Nc2nc(S(=O)(=O)c3ccc(F)cc3)cc3ccccc23)c1 [Example 25]", "JAK3 (Homo sapiens, UniProt P52333)", "≤ 10 nM"],
  ["Cc1cc(Nc2nc([S+]([O-])c3ccc(F)cc3)cc3ccccc23)n[nH]1 (centres unmarked) [Example 13]", "JAK3 (Homo sapiens, UniProt P52333)", "≤ 10 nM"],
  ["Cn1cnc(Nc2nc(S(=O)(=O)c3ccc(F)cc3)cc3ccccc23)c1 [Example 20]", "JAK3 (Homo sapiens, UniProt P52333)", "≤ 10 nM"],
  ["O=S(=O)(c1ccc(F)cc1)c1cc2ccccc2c(Nc2ncco2)n1 [Example 23]", "JAK3 (Homo sapiens, UniProt P52333)", "> 100 nM"],
  ["Cc1cc(Nc2nc(C(=O)c3ccc(F)cc3)cc3ccccc23)n[nH]1 [Example 1]", "JAK3 (Homo sapiens, UniProt P52333)", "10 to 100 nM"],
  ["Cc1cc(Nc2nc(S(=O)(=O)c3ccc(F)cc3)cc3ccccc23)n[nH]1 [Example 10]", "JAK3 (Homo sapiens, UniProt P52333)", "≤ 10 nM"],
  ["O=S(=O)(c1ccc(F)cc1)c1cc2ccccc2c(Nc2nccs2)n1 [Example 17]", "JAK3 (Homo sapiens, UniProt P52333)", "10 to 100 nM"],
  ["[2H]C([2H])([2H])n1cnc(Nc2nc(S(=O)(=O)c3ccc(F)cc3)cc3ccccc23)c1 [Example 24]", "JAK3 (Homo sapiens, UniProt P52333)", "≤ 10 nM"],
  ["COc1cc(Nc2nc(S(=O)(=O)c3ccc(F)cc3)cc3ccccc23)n[nH]1 [Example 15]", "JAK3 (Homo sapiens, UniProt P52333)", "≤ 10 nM"],
  ["Cc1cnc(Nc2nc([S+]([O-])c3ccc(F)cc3)cc3ccccc23)s1 (centres unmarked) [Example 12]", "JAK3 (Homo sapiens, UniProt P52333)", "10 to 100 nM"],
  ["O=S(=O)(c1ccc(F)cc1)c1cc2ccccc2c(Nc2cc[nH]n2)n1 [Example 14]", "JAK3 (Homo sapiens, UniProt P52333)", "≤ 10 nM"],
  ["Cc1cc(Nc2nc(S(=O)(=O)c3ccc(F)cc3)cc3c(Br)cccc23)n[nH]1 [Example 26]", "JAK3 (Homo sapiens, UniProt P52333)", "≤ 10 nM"],
  ["O=S(=O)(c1ccc(F)cc1)c1cc2ccccc2c(Nc2ncns2)n1 [Example 18]", "JAK3 (Homo sapiens, UniProt P52333)", "10 to 100 nM"]
]}
